molecular target: hLIFR (Homo sapiens, UniProt P42702); test: STAT3 transactivation in HepG2 cells transfected with hLIFR and CD130, stimulated with LIF; conditions: LIF 10 ng/mL, read-out: HepG2 LIFR Antagonism IC50 (STAT3 transactivation)
Sequence (P42702 45-1097): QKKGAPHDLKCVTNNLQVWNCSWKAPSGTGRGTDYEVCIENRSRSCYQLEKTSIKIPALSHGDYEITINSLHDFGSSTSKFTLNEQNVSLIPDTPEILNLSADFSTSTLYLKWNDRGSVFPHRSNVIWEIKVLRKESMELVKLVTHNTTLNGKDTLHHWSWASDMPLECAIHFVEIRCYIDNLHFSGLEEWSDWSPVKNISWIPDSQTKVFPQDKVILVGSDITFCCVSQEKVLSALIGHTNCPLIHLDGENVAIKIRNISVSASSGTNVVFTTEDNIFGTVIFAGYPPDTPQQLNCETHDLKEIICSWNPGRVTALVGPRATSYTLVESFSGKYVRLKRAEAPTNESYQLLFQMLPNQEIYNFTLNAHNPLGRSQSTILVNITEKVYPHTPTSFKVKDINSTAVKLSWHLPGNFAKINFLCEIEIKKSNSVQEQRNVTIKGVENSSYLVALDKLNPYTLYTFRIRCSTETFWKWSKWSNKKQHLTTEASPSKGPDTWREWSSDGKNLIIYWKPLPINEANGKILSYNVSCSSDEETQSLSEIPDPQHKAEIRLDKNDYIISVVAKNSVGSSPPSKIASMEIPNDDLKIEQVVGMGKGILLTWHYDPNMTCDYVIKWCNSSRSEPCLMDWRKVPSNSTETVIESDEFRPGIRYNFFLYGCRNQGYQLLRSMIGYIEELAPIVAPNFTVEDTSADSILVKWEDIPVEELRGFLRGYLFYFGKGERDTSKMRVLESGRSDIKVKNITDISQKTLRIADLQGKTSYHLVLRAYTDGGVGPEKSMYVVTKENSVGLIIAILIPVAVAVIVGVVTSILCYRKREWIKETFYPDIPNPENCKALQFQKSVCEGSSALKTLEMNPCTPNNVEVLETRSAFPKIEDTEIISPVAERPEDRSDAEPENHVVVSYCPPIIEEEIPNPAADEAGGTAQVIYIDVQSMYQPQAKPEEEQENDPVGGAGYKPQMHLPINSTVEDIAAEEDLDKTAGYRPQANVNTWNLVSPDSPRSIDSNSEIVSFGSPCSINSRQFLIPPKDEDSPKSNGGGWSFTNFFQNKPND
METRIC_NAME: pIC50
# reply with the number alone; pIC50 is -log10 of concentration in mol/L

Find the measured pIC50: item CC[C@H]1[C@@H](O)C2C3CC[C@H]([C@H](C)CCO)[C@@]3(C)CCC2[C@@]2(C)CC[C@@H](O)C[C@@H]12 (stereo partly shown) [BAR502] , target or system hLIFR (Homo sapiens, UniProt P42702).
5.56

Taken from paper PMC10043345.
